Hi there, I'd appreciate the recorded Mean % inhibition of signal in confirmation assay for every entry that follows.
target: pre-existing anti-VH ADA in human serum; assay: ADA confirmation assay (MSD): 10 ug/mL test material against labelled DOM1H-131-206, mean of 10 sera
Supply the numeric figure in %, leaving out any unit text.

Ask: Please list Mean % inhibition of signal in confirmation assay recorded for the binder DOM1H-131-206 P14T (protein, name in Kabat numbering) VH: EVQLLESGGGLVQTGGSLRLSCAASGFTFAHETMVWVRQAPGKGLEWVSHIPPDGQDPFYADSVKGRFTISRDNSKNTLYLQMNSLRAEDTAVYHCALLPKRGPWFDYWGQGTLVTVSS
Result: 68.9

Ask: Please list Mean % inhibition of signal in confirmation assay recorded for the binder DOM1H-131-206 P14K + C-terminal A (protein, name in Kabat numbering) VH: EVQLLESGGGLVQKGGSLRLSCAASGFTFAHETMVWVRQAPGKGLEWVSHIPPDGQDPFYADSVKGRFTISRDNSKNTLYLQMNSLRAEDTAVYHCALLPKRGPWFDYWGQGTLVTVSSA
Result: 29.1

Ask: Please list Mean % inhibition of signal in confirmation assay recorded for the binder DOM1H-131-206 A84T (other, name in Kabat numbering, VH dAb variant) VH: EVQLLESGGGLVQPGGSLRLSCAASGFTFAHETMVWVRQAPGKGLEWVSHIPPDGQDPFYADSVKGRFTISRDNSKNTLYLQMNSLRTEDTAVYHCALLPKRGPWFDYWGQGTLVTVSS
Result: 91

Ask: Please list Mean % inhibition of signal in confirmation assay recorded for the binder DOM1H-131-206 P14Q + C-terminal ASTKG (protein, name in Kabat numbering) VH: EVQLLESGGGLVQQGGSLRLSCAASGFTFAHETMVWVRQAPGKGLEWVSHIPPDGQDPFYADSVKGRFTISRDNSKNTLYLQMNSLRAEDTAVYHCALLPKRGPWFDYWGQGTLVTVSSASTKG
Result: 21.8
